The measured values listed here are drawn from ChEMBL document CHEMBL4665834.

Experiment: Lipophilicity, log D of compound at pH 7.5 by HPLC analysis
Settings: buffer
endpoint_name: logD
Answers are plain numbers.

The following molecules each have a reported value; give each one's logD.
1. Cc1c(N2CC(F)(F)C2)nc2ccc(Br)cc2c1C(=O)NCC(CCC(=O)O)c1ccccc1Cl (racemic)
2. Cc1c(-c2ccccc2)nc2ccc(Br)cc2c1C(=O)NCC(C)c1ccccn1 (racemic)

**Result**
1. 2.6
2. 3.1

The following molecules each have a reported value; give each one's logD.
1. Cc1c(-c2ccccc2)nc2ccc(Br)cc2c1C(=O)NCC(CC(=O)O)c1ccccc1Cl (single isomer, unassigned; (+))
2. Cc1c(-c2ccccc2)nc2ccc(C(C)(C)C)cc2c1C(=O)Nc1ccc(C(=O)O)cc1F

**Result**
1: 2; 2: 2.1

---

Assay: Volume of distribution at steady state in Wistar rat at 1 mg/kg, iv administered as bolus dose or 3 mg/kg, po administered via gavage by LC-MS/MS analysis
Format: ADME, organism-based
Conditions: in vivo, read-out: Vdss
endpoint_name: Vd (L/kg)
Give bare numbers, in L/kg.

**Query** Could you tell me which Vd is on file for Cc1c(N2CCCC2)nc2ccc(Br)cc2c1C(=O)NC[C@H](CCC(=O)O)c1ccccc1Cl [BAY-6672] ?
**Result** 2.1

---

Assay: Protein binding in pooled dog plasma assessed as unbound fraction incubated for 6 hrs by LC-MS/MS analysis based equilibrium dialysis method
Format: ADME, cell-free, Canis lupus familiaris
endpoint_name: fraction unbound at 6 h

**Query** Could you tell me which fraction unbound at 6 h is on file for "Cc1c(N2CCCC2)nc2ccc(Br)cc2c1C(=O)NC[C@H](CCC(=O)O)c1ccccc1Cl" ?
**Result** < 0.01

---

Experiment: Oral bioavailability in Wistar rat at 1 to 3 mg/kg administered via gavage using EtOH/PEG400/H2O 10/40/50 formulation by LC-MS/MS analysis
Assay type: ADME, organism-based
Details: in vivo, dose 1-3 mg/kg
Please go through the items and note down their bioavailability.
Give bare numbers, in %.

**Query** Could you tell me which bioavailability is on file for "Cc1c(-c2ccccc2)nc2ccc(Br)cc2c1C(=O)Nc1ccc(C(=O)O)cc1F" ?
**Result** 100

The following compounds each have a reported value; give each one's bioavailability.
1. Cc1c(-c2ccccc2)nc2ccc(Br)cc2c1C(=O)NCC(CC(=O)O)c1ccccc1Cl (single isomer, unassigned; (+))
2. Cc1c(N2CCCC2)nc2ccc(Br)cc2c1C(=O)NC[C@H](CCC(=O)O)c1ccccc1Cl [BAY-6672]
3. Cc1c(-c2ccccc2)nc2ccc(Br)cc2c1C(=O)NC12CCC(C(=O)O)(CC1)CC2
4. Cc1c(-c2ccccc2)nc2ccc(Br)cc2c1C(=O)NCC(CCC(=O)O)c1ccccc1Cl (single isomer, unassigned; (+))

**Result**
1: 90; 2: 91; 3: 100; 4: 75

---

Target: Prostaglandin E2 receptor EP1 subtype (Homo sapiens, UniProt P34995)
Sequence (P34995 whole entry): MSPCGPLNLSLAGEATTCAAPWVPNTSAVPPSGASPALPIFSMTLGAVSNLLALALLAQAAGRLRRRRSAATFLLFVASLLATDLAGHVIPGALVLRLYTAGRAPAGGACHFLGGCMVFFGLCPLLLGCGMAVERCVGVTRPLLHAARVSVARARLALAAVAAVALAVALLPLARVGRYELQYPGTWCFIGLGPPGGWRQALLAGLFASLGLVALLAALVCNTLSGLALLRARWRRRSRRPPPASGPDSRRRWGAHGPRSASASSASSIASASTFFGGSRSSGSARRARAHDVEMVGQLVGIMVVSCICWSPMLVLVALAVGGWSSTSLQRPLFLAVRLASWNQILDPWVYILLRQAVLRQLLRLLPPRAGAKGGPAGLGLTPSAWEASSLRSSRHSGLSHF
Assay: Displacement of [3H]prostaglandin E2 from full-length recombinant human EP1 receptor expressed in HEK293 cell membranes measured after 60 mins by scintillation counting method
pIC50: −log10 of the molar value.
endpoint_name: pIC50

**Query** Could you tell me which pIC50 is on file for "Cc1c(N2CCCC2)nc2ccc(Br)cc2c1C(=O)NC[C@H](CCC(=O)O)c1ccccc1Cl" ?
**Result** < 5.00

---

Molecular target: Prostaglandin F2-alpha receptor (Rattus norvegicus, UniProt P43118)
Sequence (P43118 whole entry): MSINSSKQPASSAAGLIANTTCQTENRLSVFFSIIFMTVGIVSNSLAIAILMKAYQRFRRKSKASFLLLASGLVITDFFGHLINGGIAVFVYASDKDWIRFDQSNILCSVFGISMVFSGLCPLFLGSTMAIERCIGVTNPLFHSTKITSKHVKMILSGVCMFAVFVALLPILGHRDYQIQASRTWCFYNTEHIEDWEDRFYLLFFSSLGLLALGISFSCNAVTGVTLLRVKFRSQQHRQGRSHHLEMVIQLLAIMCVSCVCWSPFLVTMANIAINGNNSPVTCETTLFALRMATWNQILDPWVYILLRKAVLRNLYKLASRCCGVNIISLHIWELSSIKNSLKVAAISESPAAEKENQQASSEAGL
Assay: Antagonist activity at rat FPR stably expressed in CHO cells assessed as inhibition of PGF2alpha-induced calcium flux preincubated for 10 mins followed by PGF2alpha stimulation and measured for 120 secs by fluo-8 AM dye based fluorescence assay
Assay type: cell-based
endpoint_name: pIC50
Numbers only, as −log10 of the molar value.

**Query** So what pIC50 did "Cc1c(N2CCCC2)nc2ccc(Br)cc2c1C(=O)NC[C@H](CCC(=O)O)c1ccccc1Cl" get with Prostaglandin F2-alpha receptor (Rattus norvegicus, UniProt P43118)?
**Result** 7.96

---

Test: Clearance in Wistar rat at 1 mg/kg, iv administered as bolus dose or 3 mg/kg, po administered via gavage by LC-MS/MS analysis
Assay type: ADME, organism-based
Settings: in vivo
endpoint_name: clearance
Returns: string containing the number followed by the unit.

**Query** Could you tell me which clearance is on file for "Cc1c(N2CCCC2)nc2ccc(Br)cc2c1C(=O)NC[C@H](CCC(=O)O)c1ccccc1Cl" ?
**Result** 11.7 mL/min/kg

---

Target: Cytochrome P450 2C9 (Homo sapiens)
Sequence (P11712 whole entry): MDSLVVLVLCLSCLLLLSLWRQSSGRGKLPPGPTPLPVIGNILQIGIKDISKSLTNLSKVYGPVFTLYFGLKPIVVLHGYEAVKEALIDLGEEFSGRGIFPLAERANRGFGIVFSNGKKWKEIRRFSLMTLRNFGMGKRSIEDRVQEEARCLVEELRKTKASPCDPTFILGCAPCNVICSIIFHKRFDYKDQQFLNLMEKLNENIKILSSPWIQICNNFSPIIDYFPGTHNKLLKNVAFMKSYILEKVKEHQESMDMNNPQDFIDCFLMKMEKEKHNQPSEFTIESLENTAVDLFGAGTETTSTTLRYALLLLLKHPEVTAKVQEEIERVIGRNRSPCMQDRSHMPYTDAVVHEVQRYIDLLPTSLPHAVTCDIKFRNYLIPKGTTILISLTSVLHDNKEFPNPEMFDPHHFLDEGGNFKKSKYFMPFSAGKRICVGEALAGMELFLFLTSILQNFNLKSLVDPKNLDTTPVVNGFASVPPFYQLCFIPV
pIC50: −log10 of the molar value.
endpoint_name: pIC50

**Query** Could you tell me which pIC50 is on file for "Cc1c(N2CCCC2)nc2ccc(Br)cc2c1C(=O)NC[C@H](CCC(=O)O)c1ccccc1Cl" ?
**Result** < 4.70

---

Assay: Solubility of compound at pH 1 to 7 using crystalline form of sample
Assay type: physicochemical
endpoint_name: solubility (µg/mL)
One number for each entry, in µg/mL.

**Query** Could you tell me which solubility is on file for "Cc1c(-c2ccccc2)nc2ccc(Br)cc2c1C(=O)Nc1ccc(C(=O)O)cc1F" ?
**Result** 1

---

Target: Thromboxane A2 receptor (Homo sapiens, UniProt P21731)
Sequence (P21731 whole entry): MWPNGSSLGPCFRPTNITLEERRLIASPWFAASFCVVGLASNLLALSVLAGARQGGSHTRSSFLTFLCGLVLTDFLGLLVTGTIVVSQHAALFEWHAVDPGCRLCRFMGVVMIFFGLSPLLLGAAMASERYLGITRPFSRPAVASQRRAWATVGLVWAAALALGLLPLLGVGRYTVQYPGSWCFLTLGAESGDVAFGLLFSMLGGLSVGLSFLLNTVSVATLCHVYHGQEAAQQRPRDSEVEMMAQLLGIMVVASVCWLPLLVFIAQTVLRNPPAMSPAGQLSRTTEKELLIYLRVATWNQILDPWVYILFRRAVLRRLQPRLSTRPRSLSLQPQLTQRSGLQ
Test: Antagonist activity at recombinant full-length human TP receptor expressed in HEK293 cells assessed as inhibition of U-44069-induced response measured after 30 mins by TR-FRET assay
endpoint_name: IC50 (nM)
Numbers only, in nM.

**Query** Could you tell me which IC50 is on file for "Cc1c(N2CCCC2)nc2ccc(Br)cc2c1C(=O)NC[C@H](CCC(=O)O)c1ccccc1Cl" ?
**Result** 2200

---

Assay: Oral bioavailability in Wistar rat at 1 to 3 mg/kg administered via gavage using EtOH/PEG400/H2O/DMSO 8/40/50/2 formulation by LC-MS/MS analysis
Assay type: ADME, organism-based
Details: in vivo, dose 1-3 mg/kg
endpoint_name: bioavailability (%)
Numbers only, in %.

**Query** Could you tell me which bioavailability is on file for "Cc1c(-c2ccccc2)nc2ccc(Br)cc2c1C(=O)NC12CCC(C(=O)O)(CC1)CC2" ?
**Result** 90

---

Experiment: Clearance in Wistar rat at 0.3 to 1 mg/kg, iv administered as bolus dose or 15 mins infusion by LC-MS/MS analysis
Format: ADME, organism-based
Details: Wistar, in vivo, dose 0.3-1 mg/kg
endpoint_name: clearance (mL/min/kg)
Give bare numbers, in mL/min/kg.

**Query** Could you tell me which clearance is on file for "Cc1c(-c2ccccc2)nc2ccc(I)cc2c1C(=O)Nc1ccc(C(=O)O)cc1F" ?
**Result** 21.7

The following compounds each have a reported value; give each one's clearance.
1. Cc1c(N2CCCCC2)nc2ccc(Br)cc2c1C(=O)NCC(CCC(=O)O)c1ccccc1Cl (stereo in doubt; 48)
2. Cc1c(-c2ccccc2)nc2ccc(Br)cc2c1C(=O)Nc1ccc(C(=O)O)cc1F
3. Cc1c(-c2ccccc2)nc2ccc(C(F)(F)F)cc2c1C(=O)Nc1ccc(C(=O)O)cc1F
4. Cc1c(-c2ccccc2)nc2ccc(Br)cc2c1COc1ccc(C(=O)O)cc1F

**Result**
1. 16.7
2. 16.7
3. 40
4. 20

---

Please go through the items and note down their pIC50.
Molecular target: Cytochrome P450 2D6 (Homo sapiens)
Sequence (P10635 whole entry): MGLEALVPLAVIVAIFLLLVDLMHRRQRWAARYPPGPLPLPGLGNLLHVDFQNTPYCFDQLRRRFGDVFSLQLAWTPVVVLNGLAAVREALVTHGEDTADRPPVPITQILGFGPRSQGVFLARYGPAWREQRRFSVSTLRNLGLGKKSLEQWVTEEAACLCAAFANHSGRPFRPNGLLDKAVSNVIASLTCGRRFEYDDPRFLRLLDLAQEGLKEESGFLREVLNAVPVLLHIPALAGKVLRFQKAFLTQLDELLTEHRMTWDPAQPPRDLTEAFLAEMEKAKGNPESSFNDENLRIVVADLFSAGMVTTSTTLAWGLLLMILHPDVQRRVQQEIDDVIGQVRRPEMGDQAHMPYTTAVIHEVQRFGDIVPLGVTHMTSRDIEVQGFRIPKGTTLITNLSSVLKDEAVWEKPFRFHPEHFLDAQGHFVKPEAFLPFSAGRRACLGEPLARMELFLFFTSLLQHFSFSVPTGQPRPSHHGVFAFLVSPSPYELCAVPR
pIC50: −log10 of the molar value.

**Query** Could you tell me which pIC50 is on file for Cc1c(N2CCCC2)nc2ccc(Br)cc2c1C(=O)NC[C@H](CCC(=O)O)c1ccccc1Cl [BAY-6672] ?
**Result** < 4.70

Okay, next one:
**Query** Could you tell me which pIC50 is on file for "Cc1c(-c2ccccc2)nc2ccc(Br)cc2c1C(=O)NC12CCC(C(=O)O)(CC1)CC2" ?
**Result** < 5.00

---

Assay: Oral bioavailability in Balb/c mouse at 3 mg/kg administered via gavage by LC-MS/MS analysis
Type: ADME, organism-based
Details: in vivo
endpoint_name: bioavailability (%)
Give bare numbers, in %.

**Query** Could you tell me which bioavailability is on file for "Cc1c(N2CCCC2)nc2ccc(Br)cc2c1C(=O)NC[C@H](CCC(=O)O)c1ccccc1Cl" ?
**Result** 94
